- assay.target: Cannabinoid receptor 2 (Mus musculus)
- Sequence (P47936 whole entry): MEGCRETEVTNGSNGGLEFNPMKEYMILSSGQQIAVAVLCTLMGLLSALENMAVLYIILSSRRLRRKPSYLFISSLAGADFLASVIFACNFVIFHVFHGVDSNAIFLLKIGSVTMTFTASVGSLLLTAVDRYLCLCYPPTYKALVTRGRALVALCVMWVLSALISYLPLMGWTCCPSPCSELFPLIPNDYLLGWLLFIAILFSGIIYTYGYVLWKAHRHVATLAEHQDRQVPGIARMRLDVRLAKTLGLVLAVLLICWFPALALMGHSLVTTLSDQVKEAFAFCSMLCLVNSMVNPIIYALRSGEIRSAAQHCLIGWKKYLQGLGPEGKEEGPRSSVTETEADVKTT
pKi: −log10 of the molar value.
measurement.label: pKi

The value of pKi recorded for "CC(C)(NC(=O)c1ccc(N2CC(F)(F)C2)c(OCC2CC2)n1)c1nnc(-c2cccnc2)o1" when tested on Cannabinoid receptor 2 (Mus musculus) reads < 5.00

The value of pKi recorded for "CC(C)(NC(=O)c1ccc(N2CC(F)(F)C2)c(OCC2CC2)n1)c1nnc(C2CC2)o1" when tested on Cannabinoid receptor 2 (Mus musculus) reads < 5.00

The value of pKi recorded for "CC(C)(NC(=O)c1ccc(N2CC(F)(F)C2)c(OCC2CC2)n1)c1nnc(-c2ccccc2)o1" when tested on Cannabinoid receptor 2 (Mus musculus) reads < 5.00
